assayed-system: Beta-2 adrenergic receptor (Homo sapiens)
protocol-description: Adrenergic beta2 receptor (ADRB2) small molecule agonists, cell-based qHTS assay (AID 1963593);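 note: CHO cells stably overexpressing human ADRB2; % is set by controls: 0 for no effect and ±100 for the full control effect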
measurement-parameters: CHO-ADRB2 cells, cAMP HTRF, 30 min; series mostly up to 92.4 µM
Description: National Center for Advancing Translational Sciences [NCATS] Division of Preclinical Innovation [DPI] U.S. Environmental Protection Agency [EPA] National Institutes of Environmental Health Sciences [NIEHS] National Toxicology Program [NTP] U.S. Food and Drug Administration [FDA] Beta adrenergic receptors (Beta-ARs) belong to the G-protein coupled receptor (GPCR) superfamily, includes three subtypes - beta1, beta2, and beta3. […]
Records with an inconclusive call do not appear. The source made the active and inactive calls. Calls come from the whole dose curve.

record-smiles: C[C@H]1O[C@@H](O[C@H]2CC[C@@]3(C)[C@H](CC[C@@H]4[C@@H]3C[C@@H](O)[C@]3(C)[C@@H](C5=CC(=O)OC5)CC[C@]43O)C2)C[C@H](O)[C@@H]1O[C@H]1C[C@H](O)[C@H](O[C@H]2C[C@H](O)[C@H](O[C@@H]3O[C@H](CO)[C@@H](O)[C@H](O)[C@H]3O)[C@@H](C)O2)[C@@H](C)O1
activation: inactive

record-smiles: CCCCCCCC/C=C\CCCCCCCC(=O)OCCO
activation: inactive

record-smiles: CCCCCCOC(=O)NC(=N)c1ccc(NCc2nc3cc(C(=O)N(CCC(=O)OCC)c4ccccn4)ccc3n2C)cc1
activation: inactive

* * *

assayed-system: 5-hydroxytryptamine receptor 2A (Homo sapiens) (UniProt P28223)
Sequence (P28223 whole entry, looked up): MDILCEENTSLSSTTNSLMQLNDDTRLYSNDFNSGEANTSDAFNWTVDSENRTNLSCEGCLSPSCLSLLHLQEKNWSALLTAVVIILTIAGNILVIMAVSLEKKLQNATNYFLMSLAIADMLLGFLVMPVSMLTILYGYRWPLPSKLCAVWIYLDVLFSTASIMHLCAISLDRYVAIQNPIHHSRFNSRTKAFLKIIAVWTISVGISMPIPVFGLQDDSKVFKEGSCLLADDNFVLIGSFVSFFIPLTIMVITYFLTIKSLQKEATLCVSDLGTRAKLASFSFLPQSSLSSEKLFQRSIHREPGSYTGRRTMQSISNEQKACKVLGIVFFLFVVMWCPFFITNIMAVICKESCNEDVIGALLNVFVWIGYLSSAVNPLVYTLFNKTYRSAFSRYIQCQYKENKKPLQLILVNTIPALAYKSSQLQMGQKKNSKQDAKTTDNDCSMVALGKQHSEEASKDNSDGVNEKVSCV
protocol-description: 5-hydroxytryptamine receptor 2A (HTR2A) small molecule agonists, cell-based qHTS assay (AID 1963587); note: % is set by controls: 0 for no effect and ±100 for the full control effect; nearly all actives have a fitted effect of over 30% in size
measurement-parameters: HTR2A-CHO cells, calcium flux fluorescence, agonist mode; series mostly up to 76.8 µM
Inconclusive results are not listed. Active and inactive are the calls of the source. Calls come from the whole dose curve.
Would you mind telling me the reported activation of each entry?

Use the examples below as a reference point.
molecule: CC1=CC(=C(c2ccc(N)cc2)c2ccc(N)cc2)C=CC1=N
assayed-system: 5-hydroxytryptamine receptor 2A (Homo sapiens) (UniProt P28223)
activation: 2.32% [at 7.02 µM] (inactive)

molecule: C=C/C=C/C=C/CCCCC
assayed-system: 5-hydroxytryptamine receptor 2A (Homo sapiens) (UniProt P28223)
activation: -2.6% [at 15.9 µM] (inactive)

molecule: CCC(Cl)CC(Cl)C(Cl)C(Cl)C(Cl)C(C)Cl (stereo unspecified)
assayed-system: 5-hydroxytryptamine receptor 2A (Homo sapiens) (UniProt P28223)
activation: -1.32% [at 15.9 µM] (inactive)

molecule: C=C(C)C(=O)OCCCCCCCCCCCCCCCCCC
assayed-system: 5-hydroxytryptamine receptor 2A (Homo sapiens) (UniProt P28223)
activation: -0.137% [at 15.9 µM] (inactive)

molecule: COc1cc2ncnc(Nc3cccc(Cl)c3)c2cc1OC
assayed-system: 5-hydroxytryptamine receptor 2A (Homo sapiens) (UniProt P28223)
activation: -3.99% [at 15.9 µM] (inactive)

Hi team, please reply with activation for each item in this list.
1. CN(C)C(=O)NC1(c2ccccc2)CCN(CCC[C@]2(c3ccc(Cl)c(Cl)c3)CCCN(C(=O)c3ccccc3)C2)CC1
2. c1cc2ccc3ccc4ccc5cccc6c(c1)c2c3c4c56
3. N[C@@H](CCC(=O)N[C@@H](CS)C(=O)NCC(=O)O)C(=O)O

## Output
["1.46% [at 15.9 µM] (inactive)", "13.2% [at 2.65 µM] (inactive)", "2.78% [at 15.9 µM] (inactive)"]

* * *

assayed-system: Beta-2 adrenergic receptor (Homo sapiens)
protocol-description: Adrenergic beta2 receptor (ADRB2) small molecule antagonists, cell-based qHTS assay (AID 1963592); note: nearly all actives have a fitted effect of over 50% in size
measurement-parameters: CHO-ADRB2 cells, isoproterenol-stimulated cAMP HTRF ratio, 0.5 h; series mostly up to 92.4 µM
Results filed as inconclusive are left out. Calls of active or inactive are those of the source. Calls follow the shape of the full dose curve.
Select the correct class. Options are active, inactive and nothing else.

compound: Cc1cc(-c2ccc(N=Nc3cc(S(=O)(=O)O)c4ccccc4c3N)c(C)c2)ccc1N=Nc1cc(S(=O)(=O)O)c2ccccc2c1N
assayed-system: Beta-2 adrenergic receptor (Homo sapiens)
assigned-class: inactive
--
compound: CCCN(CCc1cccs1)[C@H]1CCc2c(O)cccc2C1
assayed-system: Beta-2 adrenergic receptor (Homo sapiens)
assigned-class: inactive
--
compound: Cc1cc2c(cc1CC(=O)c1sccc1S(=O)(=O)Nc1onc(C)c1Cl)OCO2
assayed-system: Beta-2 adrenergic receptor (Homo sapiens)
assigned-class: inactive
--
compound: CN(C)C(=O)C(CCN1CCC(O)(c2ccc(Cl)cc2)CC1)(c1ccccc1)c1ccccc1
assayed-system: Beta-2 adrenergic receptor (Homo sapiens)
assigned-class: active

## Input // return assay outcome for `O=C(O)c1ccccc1-c1ccc(C(F)(F)F)cc1`
## Output inactive

## Input Dear colleague, could you share the recorded outcome for `CO[C@H]1C=CO[C@@]2(C)Oc3c(C)c(O)c4c(O)c(c5c(c4c3C2=O)=NC2(CCN(CC(C)C)CC2)N=5)NC(=O)/C(C)=C\C=C/[C@H](C)[C@H](O)[C@@H](C)[C@@H](O)[C@@H](C)[C@H](OC(C)=O)[C@@H]1C` when you have a moment?
## Output inactive

## Input Per the assay record, what outcome was assigned to `CCCCCC=CCC=CCCCCCCCC(=O)OCC` ?
## Output inactive

## Input Given `C=Cc1ccc(O)c(OC)c1` , state the outcome it received in this test.
## Output inactive

## Input Please share the test call associated with `COc1c2occc2cc2ccc(=O)oc12` .
## Output inactive

## Input Hi team, can someone confirm the assay call for `CN(C)C(=O)Nc1ccccc1` ?
## Output inactive

## Input Recorded call for `CC(C)N1C(=O)c2ccccc2C1=O` ?
## Output inactive

## Input Record lookup: outcome of this test for CNC1CCCN(c2c(F)cc3c(=O)c(C(=O)O)cn(C4CC4)c3c2OC)C1 (stereo not drawn) ?
## Output inactive

* * *

assayed-system: Muscarinic acetylcholine receptor M1 (Homo sapiens) (UniProt P11229)
Sequence (P11229 whole entry, looked up): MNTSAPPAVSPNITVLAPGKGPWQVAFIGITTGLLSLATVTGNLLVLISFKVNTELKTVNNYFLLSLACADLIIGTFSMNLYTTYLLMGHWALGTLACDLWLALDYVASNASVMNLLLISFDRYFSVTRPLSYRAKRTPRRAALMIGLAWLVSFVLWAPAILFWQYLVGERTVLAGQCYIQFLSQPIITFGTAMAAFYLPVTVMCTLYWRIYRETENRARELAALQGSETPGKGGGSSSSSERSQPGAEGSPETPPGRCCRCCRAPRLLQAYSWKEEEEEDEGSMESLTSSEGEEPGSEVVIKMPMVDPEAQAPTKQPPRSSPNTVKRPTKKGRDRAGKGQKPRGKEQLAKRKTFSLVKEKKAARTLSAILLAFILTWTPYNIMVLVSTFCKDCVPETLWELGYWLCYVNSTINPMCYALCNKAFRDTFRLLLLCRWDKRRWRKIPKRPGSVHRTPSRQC
protocol-description: Cholinergic receptor muscarinic 1 (CHRM1) small molecule antagonists, cell-based qHTS assay (AID 1963588); note: nearly all actives have a fitted effect of over 40% in size
measurement-parameters: CHRM1-CHO antagonist mode, calcium flux fluorescence; series mostly up to 61.5 µM
Results filed as inconclusive are left out. Activity calls are given as the source filed them. Calls follow the shape of the full dose curve.
Would you mind answering with one of these outcomes? Y (active), N (inactive)

Solved cases below.
compound: C=C(C)[C@@H]1CC=C(C)C(=O)C1
assigned-class: N
--
compound: C=CCOC(=O)COCCC(C)C
assigned-class: N
--
compound: Nc1cccnc1N
assigned-class: N
--
compound: CC1(C)C(=O)N(Cl)C(=O)N1Br
assigned-class: N
--
compound: CO[Si](OC)(c1ccccc1)c1ccccc1
assigned-class: N

## Input Hi, do you know how `CCCCCCCCCCCCCCCC(=O)OC/C=C(C)/C=C/C=C(C)/C=C/C1=C(C)CCCC1(C)C` came out in this test?
## Output N

## Input Check the results log: what was the call for O=C1CCCCC1C1CCCCC1 (centres undefined) ?
## Output N

## Input Tell me the assay call for `Nc1cccc([N+](=O)[O-])c1` please.
## Output Y

## Input Hi team, can someone confirm the assay call for `CN(C)c1ccc(N=Nc2ccccc2C(=O)O)cc1` ?
## Output N

## Input What did the test return for `C[C@@H]1C[C@H]2[C@@H]3CCC4=CC(=O)C=C[C@]4(C)[C@@]3(F)[C@@H](O)C[C@]2(C)[C@@]1(O)C(=O)COC(=O)c1ccncc1` ?
## Output N

## Input // return assay outcome for `Nc1ccc(Oc2ccc(N)c(N)c2)cc1`
## Output N

* * *

protocol-description: cAMP Responsive Elements (CRE) small molecule antagonists, cell-based qHTS assay (AID 1963591); note: % is set by controls: 0 for no effect and ±100 for the full control effect
measurement-parameters: CRE-bla HEK293T, beta-lactamase FRET ratio; series mostly up to 92.4 µM
Results filed as inconclusive are left out. Active and inactive are the calls of the source. The call rests on the fitted dose curve; in most records, active means well fitted inhibition curve with a large enough effect in the signal ratio in the repeat runs (not every such curve was filed as active); inconclusive means weak or mixed curves, or effect the other way; inactive means flat fitted curve, though single readings scatter; the % refers to the signal ratio.
outcome-measure: activity change, negative = inhibition

Recorded results for 4 compounds are shown here.
compound: CSc1c(Cl)c(Cl)c(Cl)c(Cl)c1Cl
activity change, negative = inhibition: inactive

compound: COC(C)=O
activity change, negative = inhibition: inactive

compound: C[C@@H]1C[C@H]2[C@@H]3CCC4=CC(=O)C=C[C@]4(C)[C@@]3(F)[C@@H](O)C[C@]2(C)[C@@]1(O)C(=O)COC(=O)c1ccncc1
activity change, negative = inhibition: inactive

compound: C/C(=C\c1ccc(C(=O)O)cc1)c1ccc2c(c1)C(C)(C)CCC2(C)C
activity change, negative = inhibition: inactive

I would be grateful if you could provide activity change, negative = inhibition for each of the following entries.
1. c1cc(CCCc2ccncc2)ccn1
2. BrCc1cccc(Oc2ccccc2)c1
3. N[C@@H](CCC(=O)O)C(=O)O
4. CCOC(C)OCC

## Output
inactive
inactive
inactive
inactive

Please state, for each entry, its recorded activity change, negative = inhibition.
1. C1=CC2C3C=CC(C3)C2C1 (stereo not drawn)
2. CC1=NN(c2cc(Cl)c(S(=O)(=O)O)cc2Cl)C(=O)C1N=Nc1ccc(S(=O)(=O)O)cc1 (stereo not drawn)
3. Cc1ccccc1
4. C=CC(=C)CCC=C(C)C
5. Cc1ncc(COP(=O)(O)O)c(C=O)c1O

## Output
1. inactive
2. inactive
3. inactive
4. inactive
5. inactive
